Items are presented alongside their recorded viability at 30 µM.
- Tested on: primary CLL
- METHOD NOTES: Cytotoxicity on panel of cell lines, TMRE viability (Example II.2)
- Format: cell-based
- MEASUREMENT CONTEXT: Homo sapiens, 24 hours, mean, control = 1, read-out: cell viability relative to control, primary CLL
Numeric answer plus unit only.

Solved entries:
# COMPOUND, DATA VALUE
records = [
    ("Fc1ccc(-c2ncn(Cc3ccco3)c2-c2ccnc3[nH]ccc23)cc1", "77%"),
    ("Fc1ccc(-c2ncn(C3CCCCC3)c2-c2ccnc3[nH]ccc23)cc1F", "62%"),
    ("Nc1nccc(-c2c(-c3ccc(F)cc3)ncn2C2CCCCC2)n1 [PF670462, reference compound]", "103%"),
]

For the next question, use this compound.
Value wanted: viability at 30 µM (primary CLL) of entry Cc1cc2c(-c3c(-c4ccc(F)cc4)ncn3C3CCCCC3)ccnc2[nH]1
48%

====

- System: primary CLL cells
- METHOD NOTES: Cytotoxicity, TMRE flow cytometry viability, primary CLL cells (Example II.1)
- Assay type: cell-based
- MEASUREMENT CONTEXT: Homo sapiens, CLL cell, 6 hours, TMRE positive cells normalized to control, ratio to PF670462, <1 = higher cytotoxicity than PF670462, read-out: Viability of cells, Compound of formula I (100 μM), relative to PF670462 (100 μM), CLL primary cells
Items are presented alongside their recorded viability at 100 µM.
Write the answer as a number in %, unit excluded.

Solved entries:
# MOLECULE, DATA VALUE
data = [
    ("Fc1ccc(-c2ncn(C3CCOCC3)c2-c2ccnc3[nH]ccc23)cc1 [Preparative Example 13]", 47),
    ("Fc1ccc(-c2ncn(Cc3cnsc3)c2-c2ccnc3[nH]ccc23)cc1 [Preparative Example 130]", 89),
    ("CC(C)OCCn1cnc(-c2ccc(F)cc2)c1-c1ccnc2[nH]ccc12 [Preparative Example 20]", 68),
    ("CC(=O)N1CCC(n2cnc(-c3ccc(F)cc3)c2-c2ccnc3[nH]ccc23)CC1 [Preparative Example 68]", 81),
    ("CN1CCC(Cn2cnc(-c3ccc(F)cc3)c2-c2ccnc3[nH]ccc23)CC1 [Preparative Example 102]", 68),
]

Which viability at 100 µM is listed for Fc1ccc(-c2ncn(Cc3cccs3)c2-c2ccnc3[nH]ccc23)cc1 [Preparative Example 84] ?
48

Which viability at 100 µM is listed for Fc1ccc(-c2ncn(Cc3ccoc3)c2-c2ccnc3[nH]ccc23)cc1 [Preparative Example 23] ?
37

Which viability at 100 µM is listed for Brc1ccc(-c2ncn(C3CCCCC3)c2-c2ccnc3[nH]ccc23)cc1 [Preparative Example 10] ?
61

Which viability at 100 µM is listed for COCCCn1cnc(-c2ccc(F)cc2)c1-c1ccnc2[nH]ccc12 [Preparative Example 24] ?
30

Which viability at 100 µM is listed for Fc1ccc(-c2ncn(Cc3ccccc3)c2-c2ccnc3[nH]ccc23)cc1 [Preparative Example 22] ?
17

Which viability at 100 µM is listed for CCOC(=O)N1CCC(n2cnc(-c3ccc(F)cc3)c2-c2ccnc3[nH]ccc23)CC1 [Preparative Example 70] ?
72

Which viability at 100 µM is listed for Fc1ccc(-c2ncn(Cc3cccnc3)c2-c2ccnc3[nH]ccc23)cc1 [Preparative Example 82] ?
80

Which viability at 100 µM is listed for c1ccc(-c2ncn(C3CCCCC3)c2-c2ccnc3[nH]ccc23)cc1 [Preparative Example 8] ?
32

Which viability at 100 µM is listed for c1cc(-c2c(C3CCCCC3)ncn2C2CCCCC2)c2cc[nH]c2n1 [Preparative Example 67] ?
66

Which viability at 100 µM is listed for Fc1ccc(-c2ncn(C3CCCCC3)c2-c2ccnc3[nH]cc(F)c23)cc1 [Preparative Example 149] ?
11

Which viability at 100 µM is listed for Fc1ccc(-c2ncn(C34CCN(CC3)C4)c2-c2ccnc3[nH]ccc23)cc1 [Preparative Example 86] ?
76

Which viability at 100 µM is listed for NC(=O)c1nc(-c2ccc(F)cc2)c(-c2ccnc3[nH]ccc23)n1C1CCCCC1 [Preparative Example 165] ?
0

Which viability at 100 µM is listed for Clc1ccc(-c2ncn(C3CCCCC3)c2-c2ccnc3[nH]ccc23)c(Cl)c1 [Preparative Example 7] ?
34

Which viability at 100 µM is listed for Fc1cccc(-c2ncn(C3CCCCC3)c2-c2ccnc3[nH]ccc23)c1 [Preparative Example 1] ?
18

Which viability at 100 µM is listed for Nc1cc(-c2c(-c3ccc(F)cc3)ncn2C2CCCCC2)c2cc[nH]c2n1 [Preparative Example 170] ?
56

Which viability at 100 µM is listed for CO[C@H]1CC[C@H](n2cnc(-c3ccc(F)cc3)c2-c2ccnc3[nH]ccc23)CC1 [Preparative Example 28] ?
67

Which viability at 100 µM is listed for Fc1ccccc1-c1ncn(C2CCCCC2)c1-c1ccnc2[nH]ccc12 [Preparative Example 2] ?
37

Which viability at 100 µM is listed for CN(C)CCn1cnc(-c2ccc(F)cc2)c1-c1ccnc2[nH]ccc12 [Preparative Example 21] ?
72

Which viability at 100 µM is listed for CN1CCC(Cn2cnc(-c3ccc(F)cc3)c2-c2ccnc3[nH]ccc23)C1 (stereo not shown) [Preparative Example 129] ?
78

====

- System: primary CLL cells
- METHOD NOTES: Cytotoxicity, TMRE flow cytometry viability, primary CLL cells (Example II.1)
- Assay type: cell-based
- MEASUREMENT CONTEXT: Homo sapiens, CLL cell, 6 hours, TMRE positive cells normalized to control, ratio to PF670462, <1 = higher cytotoxicity than PF670462, read-out: Viability of cells, Compound of formula I (100 μM), relative to PF670462 (100 μM), CLL primary cells
viability at 100 µM under 60% gets true, anything at or over 60% gets false.

// known answers, use as guide
# ITEM SMILES, TARGET DESC, CAT
records = [
    ("Fc1ccc(-c2ncn(Cc3c[nH]nn3)c2-c2ccnc3[nH]ccc23)cc1", "primary CLL cells", "false"),
    ("Clc1cccc(-c2ncn(C3CCCCC3)c2-c2ccnc3[nH]ccc23)c1", "primary CLL cells", "true"),
    ("Fc1ccc(-c2ncn(C3CCCCC3)c2-c2ccnc3[nH]ccc23)cc1", "primary CLL cells", "true"),
    ("OCc1nc(-c2ccc(F)cc2)c(-c2ccnc3[nH]ccc23)n1C1CCCCC1", "primary CLL cells", "true"),
    ("Cn1cnc(-c2ccc(F)cc2)c1-c1ccnc2[nH]ccc12", "primary CLL cells", "false"),
    ("Fc1ccc(-c2ncn(C3CCCCC3)c2-c2ccnc3[nH]cc(Br)c23)cc1", "primary CLL cells", "true"),
    ("CN(C)[C@H]1C[C@H](n2cnc(-c3ccc(F)cc3)c2-c2ccnc3[nH]ccc23)C1", "primary CLL cells", "true"),
    ("Fc1ccc(-c2ncn([C@H]3CC[C@H](C(F)(F)F)CC3)c2-c2ccnc3[nH]ccc23)cc1", "primary CLL cells", "false"),
    ("Fc1ccc(-c2ncn(C3CCCCC3)c2-c2ccnc3[nH]ccc23)c(F)c1", "primary CLL cells", "true"),
    ("C=CS(=O)(=O)N[C@H]1CC[C@@H](n2cnc(-c3ccc(F)cc3)c2-c2ccnc3[nH]ccc23)CC1", "primary CLL cells", "true"),
]

Input Fc1ccc(-c2ncn(CCCOC(F)(F)F)c2-c2ccnc3[nH]ccc23)cc1 ; condition: viability at 100 µM strictly below 60%. Does it hold?
true

Input Fc1ccc(-c2ncn(Cc3ccc(OC(F)(F)F)cc3)c2-c2ccnc3[nH]ccc23)cc1 ; condition: viability at 100 µM strictly below 60%. Does it hold?
true

Input CN1CCC(n2cnc(-c3ccc(F)cc3)c2-c2ccnc3[nH]ccc23)CC1 ; condition: viability at 100 µM strictly below 60%. Does it hold?
false

====

- METHOD NOTES: Pharmacokinetic study, oral dosing, plasma concentration by LC-MS/MS (Example II.5)
- Type: in vivo
- MEASUREMENT CONTEXT: mouse, male Balb/c mice, oral 20 mg/kg as dihydrochloride in saline, free base quantified, below LLOQ designated zero, read-out: conc. at 60 min
REPORTED ENDPOINT: concentration at 60 min
Numeric answer plus unit only.

Solved entries:
# COMPOUND, DATA VALUE
records = [
    ("Cn1nnc(Cn2cnc(-c3ccc(F)cc3)c2-c2ccnc3[nH]ccc23)n1 [Preparative Example 151]", "3980 nM"),
    ("Cn1cc(Cn2cnc(-c3ccc(F)cc3)c2-c2ccnc3[nH]ccc23)nn1 [Preparative Example 113]", "1030 nM"),
    ("Cn1cnc(Cn2cnc(-c3ccc(F)cc3)c2-c2ccnc3[nH]ccc23)c1 [Preparative Example 92]", "4520 nM"),
    ("Cn1ccc(Cn2cnc(-c3ccc(F)cc3)c2-c2ccnc3[nH]ccc23)n1 [Preparative Example 94]", "180 nM"),
]

Which concentration at 60 min is listed for CN(C)[C@H]1C[C@@H](n2cnc(-c3ccc(F)cc3)c2-c2ccnc3[nH]ccc23)C1 [Preparative Example 123] ?
520 nM

Which concentration at 60 min is listed for Cc1nnc(Cn2cnc(-c3ccc(F)cc3)c2-c2ccnc3[nH]ccc23)[nH]1 [Preparative Example 107] ?
2300 nM

Which concentration at 60 min is listed for Fc1ccc(-c2ncn(Cc3cocn3)c2-c2ccnc3[nH]ccc23)cc1 [Preparative Example 103] ?
130 nM
